molecular target: CB1 receptor (Rattus norvegicus, UniProt P20272); construct: Whole rat brains or dissected regions from live CD rats; tissue Charles River or Pel-Freez Biologicals; host or cells: whole rat brain (CD rats), P2 membrane; experiment: Radioligand displacement in whole rat brain (CB1) membrane preparations; format: binding; conditions: whole rat brain; 3H-SR141716A; Table 4, parallel synthesis analogs, n = 1
Sequence (P20272 whole entry): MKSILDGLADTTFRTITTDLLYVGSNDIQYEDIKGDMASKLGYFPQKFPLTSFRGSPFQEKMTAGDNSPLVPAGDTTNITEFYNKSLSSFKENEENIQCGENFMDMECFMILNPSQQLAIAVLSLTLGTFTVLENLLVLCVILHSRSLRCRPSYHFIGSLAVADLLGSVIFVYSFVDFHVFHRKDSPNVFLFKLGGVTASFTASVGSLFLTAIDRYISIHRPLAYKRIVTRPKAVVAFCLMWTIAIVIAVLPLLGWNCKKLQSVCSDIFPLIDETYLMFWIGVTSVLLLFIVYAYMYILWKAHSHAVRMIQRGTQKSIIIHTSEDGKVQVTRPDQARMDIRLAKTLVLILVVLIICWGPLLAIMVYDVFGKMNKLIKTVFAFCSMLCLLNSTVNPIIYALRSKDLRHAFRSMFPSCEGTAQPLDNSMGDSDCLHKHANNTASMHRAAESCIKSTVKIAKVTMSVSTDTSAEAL
Field: Max. Disp. %, 3H-SR141716A. Provide a value for each of the compounds that follow.

Worked cases, answers included:
>>> assayvalue("COCC(C)NC(=O)c1nn(-c2ccc(Cl)cc2Cl)c(-c2ccc(Cl)cc2)c1C (stereo not drawn)")
"94.1%"
>>> assayvalue("Cc1c(C(=O)NC(C)Cc2ccc(Cl)cc2)nn(-c2ccc(Cl)cc2Cl)c1-c1ccc(Cl)cc1 (stereo not drawn)")
"95.9%"
>>> assayvalue("Cc1c(C(=O)NCCC(c2ccccc2)c2ccccc2)nn(-c2ccc(Cl)cc2Cl)c1-c1ccc(Cl)cc1")
"96.0%"

Provide reported Max. Disp. %, 3H-SR141716A for each item, in the same order as listed.
1. CCCCCCC(C)NC(=O)c1nn(-c2ccc(Cl)cc2Cl)c(-c2ccc(Cl)cc2)c1C (stereo not drawn)
2. Cc1c(C(=O)N2CCC(O)(c3ccccc3)CC2)nn(-c2ccc(Cl)cc2Cl)c1-c1ccc(Cl)cc1
3. CCCCCC(CC)NC(=O)c1nn(-c2ccc(Cl)cc2Cl)c(-c2ccc(Cl)cc2)c1C (stereo not drawn)
4. CCCCCCCCCCCNC(=O)c1nn(-c2ccc(Cl)cc2Cl)c(-c2ccc(Cl)cc2)c1C
5. CCCCCC(C)NC(=O)c1nn(-c2ccc(Cl)cc2Cl)c(-c2ccc(Cl)cc2)c1C (stereo not drawn)
6. CCCCCCCCCC(C)NC(=O)c1nn(-c2ccc(Cl)cc2Cl)c(-c2ccc(Cl)cc2)c1C (stereo not drawn)
7. COc1ccc(NC(=O)c2nn(-c3ccc(Cl)cc3Cl)c(-c3ccc(Cl)cc3)c2C)cc1

91.3%
97.2%
95.7%
83.8%
96.5%
97.3%
95.4%

Hello, I would appreciate it if you could give Max. Disp. %, 3H-SR141716A for each entry below.
1. COc1ccc(CCNC(=O)c2nn(-c3ccc(Cl)cc3Cl)c(-c3ccc(Cl)cc3)c2C)cc1
2. Cc1c(C(=O)NCCc2ccc(O)cc2)nn(-c2ccc(Cl)cc2Cl)c1-c1ccc(Cl)cc1

1: 95.1%; 2: 100%
